Field: inhibition at 6.25 µg/mL. Provide a value for each of the compounds that follow.
# System: Mycobacterium tuberculosis
# Protocol Description: Antimycobacterial activity of compound against Mycobacterium tuberculosis H37Rv at 6.25 ug/mL
# Type: functional
Answers are plain numbers, in %.

Reference set (4 entries):
1. Cc1c(Cl)cccc1NC(=O)N/N=C/c1cccc([N+](=O)[O-])c1	58
2. Cc1c(Cl)cccc1NC(=O)N/N=C/c1ccc([N+](=O)[O-])cc1	24
3. CC(=O)Nc1ccc(NC(=O)N/N=C/c2ccccc2O)cc1	5
4. Cc1c(Cl)cccc1NC(=O)N/N=C/c1ccccc1O	0

Return reported inhibition at 6.25 µg/mL values for all items listed beneath this line.
1. Cc1c(Cl)cccc1NC(=O)N/N=C/c1ccccc1[N+](=O)[O-]
2. Cc1c(Cl)cccc1NC(=O)N/N=C/c1ccc(N(C)C)cc1

Reply |
[10, 0]
